All values here come from ChEMBL document CHEMBL1125323.

Let's look at some compounds and their measured ED.
assay-target: Vasopressin receptor (Rattus norvegicus) (UniProt P48974+P30560+Q00788)
assay-text: Antivasopressor potency in terms of blood pressure response in rats anesthetized with urethane and pretreated with phenoxybenzamine
Type: functional

compound	ED [nM/kg]
CCOc1ccc(C[C@H]2NC(=O)CC3(CCCCC3)SSC[C@H](C(=O)NCCNC(=O)C(N)CCCN=C(N)N)NC(=O)[C@@H](CC(N)=O)NC(=O)[C@H](C(C)C)NC(=O)[C@@H](Cc3ccccc3)NC2=O)cc1 (stereo partly drawn)	0.75
CCOc1ccc(C[C@H]2NC(=O)CC3(CCCCC3)SSC[C@H](C(=O)N3CCCC3C(=O)NCCNC(=O)[C@@H](N)CCCCN)NC(=O)[C@@H](CC(N)=O)NC(=O)[C@H](C(C)C)NC(=O)[C@@H](Cc3ccccc3)NC2=O)cc1 (stereo partly drawn)	0.57
CCOc1ccc(C[C@H]2NC(=O)CC3(CCCCC3)SSC[C@H](C(=O)NCCNC(=O)[C@@H](N)CCCN=C(N)N)NC(=O)[C@@H](CC(N)=O)NC(=O)[C@H](C(C)C)NC(=O)[C@@H](Cc3ccccc3)NC2=O)cc1	0.47
